- Measurement Target: GalNAc(a1-3)GalNAc
- Assay Procedure: glycan array binding signal (z-score within array); higher = stronger binding
- Particulars: glycan notation: IUPAC condensed, linker removed
This is one part of a sample in which the strongest signals are shown more often than they occur.
If the reported glycan array binding signal (z-score) equals or exceeds -0.2, assign Fulfilled. If not, assign Not fulfilled.

Exercise: Determine whether measured glycan array binding signal (z-score) meets or exceeds -0.2 for AMA (Arum maculatun) (protein) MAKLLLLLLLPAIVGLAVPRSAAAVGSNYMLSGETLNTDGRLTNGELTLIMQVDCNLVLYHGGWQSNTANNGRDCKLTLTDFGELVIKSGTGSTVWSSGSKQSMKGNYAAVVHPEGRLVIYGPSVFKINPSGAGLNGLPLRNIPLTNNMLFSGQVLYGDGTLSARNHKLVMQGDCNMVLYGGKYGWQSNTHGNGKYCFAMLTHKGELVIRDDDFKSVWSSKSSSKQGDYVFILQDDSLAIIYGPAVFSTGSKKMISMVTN
Solution: Not fulfilled

Exercise: Repeat for the following binder: Drgal1 (Danio rerio) (protein) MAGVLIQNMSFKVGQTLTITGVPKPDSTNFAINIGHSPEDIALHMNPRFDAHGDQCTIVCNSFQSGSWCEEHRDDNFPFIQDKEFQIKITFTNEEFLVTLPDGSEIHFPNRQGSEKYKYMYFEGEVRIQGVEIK
Solution: Fulfilled

Exercise: Repeat for the following binder: Gal 10 (Homo sapiens), Q05315 (protein) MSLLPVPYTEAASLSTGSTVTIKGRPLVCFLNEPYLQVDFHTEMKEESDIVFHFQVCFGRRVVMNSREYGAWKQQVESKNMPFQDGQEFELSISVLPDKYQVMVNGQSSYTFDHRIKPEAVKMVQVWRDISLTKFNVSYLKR
Solution: Not fulfilled

Exercise: Repeat for the following binder: Mincle (Bos taurus) (protein) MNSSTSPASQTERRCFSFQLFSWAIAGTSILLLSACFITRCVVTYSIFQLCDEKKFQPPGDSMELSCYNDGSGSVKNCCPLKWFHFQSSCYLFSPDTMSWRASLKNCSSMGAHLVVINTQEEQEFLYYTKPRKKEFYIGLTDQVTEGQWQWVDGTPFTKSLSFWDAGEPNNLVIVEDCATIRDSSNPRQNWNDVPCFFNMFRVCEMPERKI
Solution: Fulfilled

Exercise: Repeat for the following binder: LFA (Limax flavus) (protein) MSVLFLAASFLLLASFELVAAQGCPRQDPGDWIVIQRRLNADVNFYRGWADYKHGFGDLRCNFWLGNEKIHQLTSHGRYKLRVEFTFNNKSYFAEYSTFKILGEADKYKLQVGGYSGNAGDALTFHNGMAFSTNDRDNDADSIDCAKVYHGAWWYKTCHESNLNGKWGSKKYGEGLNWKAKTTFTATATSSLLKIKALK
Solution: Fulfilled

Exercise: Repeat for the following binder: Tim-4 (Mus musculus), Q6U7R4 (protein) MSKGLLLLWLVTELWWLYLTPAASEDTIIGFLGQPVTLPCHYLSWSQSRNSMCWGKGSCPNSKCNAELLRTDGTRIISRKSTKYTLLGKVQFGEVSLTISNTNRGDSGVYCCRIEVPGWFNDVKKNVRLELRRATTTKKPTTTTRPTTTPYVTTTTPELLPTTVMTTSVLPTTTPPQTLATTAFSTAVTTCPSTTPGSFSQETTKGSAFTTESETLPASNHSQRSMMTISTDIAVLRPTGSNPGILPSTSQLTTQKTTLTTSESLQKTTKSHQINSRQTILIIACCVGFVLMVLLFLAFLLRGKVTGANCLQRHKRPDNTEDSDSVLNDMSHGRDDEDGIFTL
Solution: Fulfilled

Exercise: Repeat for the following binder: SP15308A-bot-339-19-339 (Bacteroides ovatus) (protein) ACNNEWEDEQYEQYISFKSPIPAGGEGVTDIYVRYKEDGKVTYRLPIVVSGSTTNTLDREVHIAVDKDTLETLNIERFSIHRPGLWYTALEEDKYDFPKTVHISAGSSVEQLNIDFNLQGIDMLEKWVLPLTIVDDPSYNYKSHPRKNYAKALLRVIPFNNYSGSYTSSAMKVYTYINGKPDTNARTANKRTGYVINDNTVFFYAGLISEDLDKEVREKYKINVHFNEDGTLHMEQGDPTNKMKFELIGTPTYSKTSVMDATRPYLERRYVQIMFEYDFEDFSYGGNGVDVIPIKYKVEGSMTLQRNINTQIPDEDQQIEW
Solution: Fulfilled

Exercise: Repeat for the following binder: CD83 (Homo sapiens) (protein) MSRGLQLLLLSCAYSLAPATPEVKVACSEDVDLPCTAPWDPQVPYTVSWVKLLEGGEERMETPQEDHLRGQHYHQKGQNGSFDAPNERPYSLKIRNTTSCNSGTYRCTLQDPDGQRNLSGKVILRVTGCPAQRKEETFKKYRAETSEQKLISEEDLSRGSDDDDKAEPRGP
Solution: Not fulfilled

Exercise: Repeat for the following binder: Regenerating Gene I (Homo sapiens), P05451 (protein) MAQTSSYFMLISCLMFLSQSQGQEAQTELPQARISCPEGTNAYRSYCYYFNEDRETWVDADLYCQNMNSGNLVSVLTQAEGAFVASLIKESGTDDFNVWIGLHDPKKNRRWHWSSGSLVSYKSWGIGAPSSVNPGYCVSLTSSTGFQKWKDVPCEDKFSFVCKFKN
Solution: Not fulfilled

Exercise: Repeat for the following binder: GSL-I (Griffonia simplicifolia) (protein) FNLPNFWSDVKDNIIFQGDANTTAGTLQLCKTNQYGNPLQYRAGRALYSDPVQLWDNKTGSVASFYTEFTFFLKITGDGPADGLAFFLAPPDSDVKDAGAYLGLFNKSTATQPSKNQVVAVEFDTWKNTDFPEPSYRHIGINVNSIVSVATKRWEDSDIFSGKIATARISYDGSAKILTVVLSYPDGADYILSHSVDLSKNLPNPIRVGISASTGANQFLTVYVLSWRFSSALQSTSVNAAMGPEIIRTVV
Solution: Fulfilled

Data provenance: the supplement of paper PMC8728848
